test system: 769-P; experiment: minimum viability across doses, drug + dasatinib, relative to DMSO (fraction); higher = less growth inhibition; conditions: treatment: drug + dasatinib (fixed dose, not stated); 5 days
MEASURED_PROPERTY: minimum viability across doses
Number only, no unit.

COMPOUND | minimum viability across doses
NC(=O)Nc1cc(-c2cccc(F)c2)sc1C(=O)N[C@H]1CCCNC1 [AZD7762] + Cc1nc(Nc2ncc(C(=O)Nc3c(C)cccc3Cl)s2)cc(N2CCN(CCO)CC2)n1 | 0.0473

We next turn to a different compound, shown below.
Problem: // fetch 769-P minimum viability across doses for CO[C@H]1CC2CC[C@@H](C)[C@@](O)(O2)C(=O)C(=O)N2CCCC[C@H]2C(=O)O[C@H]([C@H](C)C[C@@H]2CCC(OC(=O)C(C)(CO)CO)[C@H](OC)C2)CC(=O)[C@H](C)/C=C(\C)[C@@H](O)[C@@H](OC)C(=O)[C@H](C)C[C@H](C)/C=C/C=C/C=C/1C (stereo in doubt) [Temsirolimus (Torisel)] + Cc1nc(Nc2ncc(C(=O)Nc3c(C)cccc3Cl)s2)cc(N2CCN(CCO)CC2)n1
Result: 0.402

---

test system: SN12C; assay: minimum viability across doses, drug alone, relative to DMSO (fraction); higher = less growth inhibition; conditions: treatment: drug alone; 5 days
Rule: measured minimum viability across doses below 0.6 gets Fulfilled; anything equal to or greater than 0.6 gets Not fulfilled.

COMPOUND | ASSIGNED_CLASS
Cc1[nH]c(/C=C2/C(=O)Nc3ccc(S(=O)(=O)N(C)c4cccc(Cl)c4)cc32)c(C)c1C(=O)N1CCN(C)CC1 | Fulfilled
CN(C)CCOc1ccc(-c2nc(-c3ccncc3)c(-c3ccc4c(c3)CC/C4=N/O)[nH]2)cc1 | Not fulfilled
O=C(NC[C@H](O)CO)c1ccncc1Nc1ccc(I)cc1F | Fulfilled

In the following, a different compound is considered.
Problem: Below 0.6 on minimum viability across doses? Entry `O=C(c1ccc(/C=C/c2n[nH]c3ccccc23)cc1)N1CCNCC1`
Result: Fulfilled

---

test system: ACHN; experiment: minimum viability across doses, drug + dasatinib, relative to DMSO (fraction); higher = less growth inhibition; conditions: treatment: drug + dasatinib (fixed dose, not stated); 5 days
// reported minimum viability across doses per item
Number only, no unit.

COMPOUND | minimum viability across doses
CC(C)(O)CC(=O)NCCn1ccc2ncnc(Nc3ccc(Oc4cccc(C(F)(F)F)c4)c(Cl)c3)c21 [TAK-285] + Cc1nc(Nc2ncc(C(=O)Nc3c(C)cccc3Cl)s2)cc(N2CCN(CCO)CC2)n1 | 0.172
CNC(=O)c1cc(Oc2ccc(NC(=O)Nc3ccc(Cl)c(C(F)(F)F)c3)cc2)ccn1.Cc1ccc(S(=O)(=O)O)cc1 [Sorafenib (Nexavar)] + Cc1nc(Nc2ncc(C(=O)Nc3c(C)cccc3Cl)s2)cc(N2CCN(CCO)CC2)n1 | 0.0615
COc1cc(Nc2c(C#N)cnc3cc(OCCCN4CCN(C)CC4)c(OC)cc23)c(Cl)cc1Cl [Bosutinib (SKI-606)] + Cc1nc(Nc2ncc(C(=O)Nc3c(C)cccc3Cl)s2)cc(N2CCN(CCO)CC2)n1 | 0.103
CCCCCCCCCCCCc1ccc(S(=O)(=O)Nc2nncs2)cc1 [PHT-427] + Cc1nc(Nc2ncc(C(=O)Nc3c(C)cccc3Cl)s2)cc(N2CCN(CCO)CC2)n1 | 0.47
O=C(O)[C@]1(Cc2cccc(Nc3nccs3)n2)CC[C@@H](Oc2cccc(Cl)c2F)CC1 [MK-5108 (VX-689)] + Cc1nc(Nc2ncc(C(=O)Nc3c(C)cccc3Cl)s2)cc(N2CCN(CCO)CC2)n1 | 0.227

Problem: Can you share its minimum viability across doses? I mean this compound: Cc1nc(NC(=O)N2CCC[C@H]2C(N)=O)sc1-c1csc(C(C)(C)C)n1 [A66] + Cc1nc(Nc2ncc(C(=O)Nc3c(C)cccc3Cl)s2)cc(N2CCN(CCO)CC2)n1
Result: 0.429

Problem: Can you share its minimum viability across doses? I mean this compound: CS(=O)(=O)N1CCN(Cc2cc3nc(-c4cccc5[nH]ncc45)nc(N4CCOCC4)c3s2)CC1 [GDC-0941] + Cc1nc(Nc2ncc(C(=O)Nc3c(C)cccc3Cl)s2)cc(N2CCN(CCO)CC2)n1
Result: 0.163

Problem: Can you share its minimum viability across doses? I mean this compound: O=c1sn(-c2cccc3ccccc23)c(=O)n1Cc1ccccc1 [Tideglusib] + Cc1nc(Nc2ncc(C(=O)Nc3c(C)cccc3Cl)s2)cc(N2CCN(CCO)CC2)n1
Result: 0.357

Problem: Can you share its minimum viability across doses? I mean this compound: CN(C)C1CCN(C(=O)c2ccc(NC(=O)Nc3ccc(-c4nc(N5CCOCC5)nc(N5CCOCC5)n4)cc3)cc2)CC1 + Cc1nc(Nc2ncc(C(=O)Nc3c(C)cccc3Cl)s2)cc(N2CCN(CCO)CC2)n1
Result: 0.125

---

tested on: SN12C; assay: AUC of dose-response viability curve, drug alone (arbitrary (AUC of normalised viability)); higher = less growth inhibition; details: treatment: drug alone; 5 days
MEASURED_PROPERTY: AUC of dose-response viability curve
Number only, no unit.

Recorded AUC of dose-response viability curve, per entry:
MOLECULE | SYSTEM_NAME | READING
CNC(=O)c1cc(COc2nnc(Nc3ccc(Cl)cc3)c3ccoc23)ccn1 [Telatinib (BAY 57-9352)] | SN12C | 3.27
CN(C)C1CCN(C(=O)c2ccc(NC(=O)Nc3ccc(-c4nc(N5CCOCC5)nc(N5CCOCC5)n4)cc3)cc2)CC1 | SN12C | 1.39
Cc1ccc(NC(=O)c2cccc(C(C)(C)C#N)c2)cc1Nc1ccc2ncn(C)c(=O)c2c1 [AZ628] | SN12C | 3.3
Br.Cc1ccc(C(=O)Cn2c3c(sc2=N)CCCC3)cc1 [Pifithrin-α] | SN12C | 3.09
Nc1nccc(Oc2ccc(NC(=O)c3c[nH]cc(-c4ccc(F)cc4)c3=O)cc2F)c1Cl | SN12C | 3.25

Problem: Can you share its AUC of dose-response viability curve? I mean this molecule: Cn1cc(-c2ccc3ncc(Cc4ccc5ncccc5c4)n3n2)cn1 [NVP-BVU972]
Result: 2.75

Problem: Can you share its AUC of dose-response viability curve? I mean this molecule: `CN1CCN(c2ccc([N+](=O)[O-])c3no[n+]([O-])c23)CC1`
Result: 3.13

Problem: Can you share its AUC of dose-response viability curve? I mean this molecule: `CCn1c(N)c(C(=O)NC)c(=O)c2ccc(C#C[C@@](C)(O)COC)nc21`
Result: 3.44

---

// reported minimum viability across doses per item
tested on: 769-P; assay: minimum viability across doses, drug + dasatinib, relative to DMSO (fraction); higher = less growth inhibition; conditions: treatment: drug + dasatinib (fixed dose, not stated); 5 days
Number only, no unit.

Problem: Can you share its minimum viability across doses? I mean this compound: Cc1cc(CN2CCN(c3c(Br)cnc4[nH]c(-c5ccc(N6CCN(C)CC6)cc5)nc34)CC2)no1 + Cc1nc(Nc2ncc(C(=O)Nc3c(C)cccc3Cl)s2)cc(N2CCN(CCO)CC2)n1 [dasatinib]
Result: 0.019

Problem: Can you share its minimum viability across doses? I mean this compound: CN[C@@H]1C[C@H]2O[C@@](C)([C@@H]1OC)n1c3ccccc3c3c4c(c5c6ccccc6n2c5c31)C(=O)NC4 [Staurosporine] + Cc1nc(Nc2ncc(C(=O)Nc3c(C)cccc3Cl)s2)cc(N2CCN(CCO)CC2)n1 [dasatinib]
Result: 0.0048

Problem: Can you share its minimum viability across doses? I mean this compound: Cn1cc(-c2ccc3ncc(Cc4ccc5ncccc5c4)n3n2)cn1 [NVP-BVU972] + Cc1nc(Nc2ncc(C(=O)Nc3c(C)cccc3Cl)s2)cc(N2CCN(CCO)CC2)n1 [dasatinib]
Result: 0.0263

Problem: Can you share its minimum viability across doses? I mean this compound: COC[C@H]1OC(=O)c2coc3c2[C@@]1(C)C1=C(C3=O)[C@@H]2CCC(=O)[C@@]2(C)C[C@@H]1OC(C)=O [Wortmannin] + Cc1nc(Nc2ncc(C(=O)Nc3c(C)cccc3Cl)s2)cc(N2CCN(CCO)CC2)n1 [dasatinib]
Result: 0.487

---

// reported GI50 of drug per item
tested on: UO-31; test: GI50 of drug in presence of dasatinib; higher = less potent; details: treatment: drug + dasatinib (fixed dose, not stated); 5 days
Could you write the number and then its unit?

MOLECULE | GI50 of drug
Cc1cn(-c2cc(NC(=O)c3ccc(C)c(Nc4nccc(-c5cccnc5)n4)c3)cc(C(F)(F)F)c2)cn1 [Nilotinib (AMN-107)] + Cc1nc(Nc2ncc(C(=O)Nc3c(C)cccc3Cl)s2)cc(N2CCN(CCO)CC2)n1 | 4.88 µM

We next turn to a different molecule, shown below.
Problem: // fetch UO-31 GI50 of drug for CS(=O)(=O)CCNCc1ccc(-c2ccc3ncnc(Nc4ccc(OCc5cccc(F)c5)c(Cl)c4)c3c2)o1.Cc1ccc(S(=O)(=O)O)cc1.Cc1ccc(S(=O)(=O)O)cc1 [Lapatinib Ditosylate (Tykerb)] + Cc1nc(Nc2ncc(C(=O)Nc3c(C)cccc3Cl)s2)cc(N2CCN(CCO)CC2)n1
Result: 5.85 µM

All figures here come from the supplement of paper PMC8149375.
